target.or.system: T1, his-tagged human CDH6 extracellular region protein (hCDH6 ECD-his) (human, UniProt P55285 19-615)
T1 construct: also called Human CDH6-his; hCDH6-his; not shown: his tag
T1 sequence: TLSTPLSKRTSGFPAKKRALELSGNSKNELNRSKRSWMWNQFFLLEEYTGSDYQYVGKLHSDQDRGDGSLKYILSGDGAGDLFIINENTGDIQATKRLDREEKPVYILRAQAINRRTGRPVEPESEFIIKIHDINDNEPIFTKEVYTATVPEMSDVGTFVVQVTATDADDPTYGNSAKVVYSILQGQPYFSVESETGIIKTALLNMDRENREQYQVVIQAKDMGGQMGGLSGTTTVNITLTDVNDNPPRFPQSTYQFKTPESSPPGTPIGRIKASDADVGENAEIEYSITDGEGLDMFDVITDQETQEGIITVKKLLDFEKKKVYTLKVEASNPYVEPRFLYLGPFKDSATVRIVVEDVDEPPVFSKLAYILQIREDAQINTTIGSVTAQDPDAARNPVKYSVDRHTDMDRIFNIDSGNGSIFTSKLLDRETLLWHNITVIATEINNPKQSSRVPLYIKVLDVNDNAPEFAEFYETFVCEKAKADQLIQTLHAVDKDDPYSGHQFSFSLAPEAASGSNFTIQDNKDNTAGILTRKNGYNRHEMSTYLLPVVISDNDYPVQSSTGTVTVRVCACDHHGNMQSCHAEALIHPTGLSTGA
method.summary: ELISA, coated antigen
// reported Max OD450 per item
Field format: number, assumed OD450, no unit text.

Max OD450 for CHI-CDH6-6 (antibody, human IgG1, kappa, V domains shown, also called CHI-hCDH6-6; chimeric antibody of murine CDH6-6) VH: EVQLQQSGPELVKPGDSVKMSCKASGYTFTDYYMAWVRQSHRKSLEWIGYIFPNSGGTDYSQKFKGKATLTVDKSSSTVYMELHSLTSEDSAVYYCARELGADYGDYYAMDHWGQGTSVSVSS VL: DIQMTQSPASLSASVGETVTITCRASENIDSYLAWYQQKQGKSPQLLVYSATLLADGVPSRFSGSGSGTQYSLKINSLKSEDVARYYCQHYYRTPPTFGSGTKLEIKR is 2.02

Max OD450 for hCDH6-6-H2L2 (antibody, V domains shown, Humanized) VH: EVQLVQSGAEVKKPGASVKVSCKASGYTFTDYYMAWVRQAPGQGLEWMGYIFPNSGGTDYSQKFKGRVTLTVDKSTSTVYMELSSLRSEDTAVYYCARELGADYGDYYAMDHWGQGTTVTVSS VL: DIQMTQSPSSLSASVGDRVTITCRASENIDSYLAWYQQKPGKSPKLLVYSATLLADGVPSRFSGSGSGTDYTLTISSLQPEDFATYYCQHYYRTPPTFGQGTKLEIK is 1.97

Max OD450 for hCDH6-6-H2L1 (antibody, V domains shown, Humanized) VH: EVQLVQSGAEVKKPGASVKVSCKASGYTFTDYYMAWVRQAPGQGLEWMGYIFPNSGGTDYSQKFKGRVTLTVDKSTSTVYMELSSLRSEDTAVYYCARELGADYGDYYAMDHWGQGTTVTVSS VL: DIQMTQSPSSLSASVGDRVTITCRASENIDSYLAWYQQKPGKSPKLLLYSATLLADGVPSRFSGSGSGTDYTLTISSLQPEDFATYYCQHYYRTPPTFGQGTKLEIK is 2.01

Max OD450 for hCDH6-6-H1L5 (antibody, V domains shown, Humanized) VH: EVQLVQSGAEVKKPGASVKVSCKASGYTFTDYYMAWVRQAPGQGLEWMGYIFPNSGGTDYSQKFKGRVTMTVDKSTSTVYMELSSLRSEDTAVYYCARELGADYGDYYAMDHWGQGTTVTVSS VL: DIVMTQSPLSLPVTPGEPASISCRASENIDSYLAWYLQKPGKSPQLLVYSATLLADGVPDRFSGSGSGTDFTLKISRVEAEDVGVYYCQHYYRTPPTFGQGTKLEIK is 2.06

Max OD450 for hCDH6-6-H3L4 (antibody, V domains shown, Humanized) VH: EVQLVQSGAEVKKPGASVKVSCKASGYTFTDYYMAWVRQAPRQGLEWMGYIFPNSGGTDYSQKFKGRVTMTVDKSTSTVYMELSSLRSEDTAVYYCARELGADYGDYYAMDHWGQGTTVTVSS VL: DIQMTQSPSSLSASVGDRVTITCRASENIDSYLAWYQQKPGKSPKLLVYSATLLADGVPSRFSGSGSGTDYTLTISSLQPEDFARYYCQHYYRTPPTFGQGTKLEIK is 2.05
